# target: HLA-B*08:01 (Homo sapiens, UniProt P01889)
# experimental-protocol: MHC binding assay (UV-ligand exchange, beta2m ELISA)
# conditions-used: MHC class I binding score; binding to HLA-B*08:01 ranged by peptide exchange yield (UV-ligand exchange, β2m ELISA)
# Description: Candidate peptides for T cell based therapies according to the present invention were further tested for their MHC binding capacity (affinity). The individual peptide-MHC complexes were produced by UV-ligand exchange, where a UV-sensitive peptide is cleaved upon UV-irradiation and exchanged with the peptide of interest as analyzed. Only peptide candidates that can effectively bind and stabilize the peptide-receptive MHC molecules prevent dissociation of the MHC complexes. […]

{"columns": ["substance", "target", "Peptide exchange"],
 "data": [
  ["224 (LPYPPQKVV; listed as Homo sapiens) [compound 224]", "HLA-B*08:01 (Homo sapiens, UniProt P01889)", "++ (20% = ++)"],
  ["228 (TLRAYVLAL; listed as Homo sapiens) [compound 228]", "HLA-B*08:01 (Homo sapiens, UniProt P01889)", "+++ (50% = +++)"],
  ["140 (IAVDKPITL; listed as Homo sapiens) [compound 140]", "HLA-B*08:01 (Homo sapiens, UniProt P01889)", "++ (20% = ++)"],
  ["229 (DTHTNTYYL; listed as Homo sapiens) [compound 229]", "HLA-B*08:01 (Homo sapiens, UniProt P01889)", "++ (20% = ++)"],
  ["104 (FAFGEPREL; listed as Homo sapiens) [compound 104]", "HLA-B*08:01 (Homo sapiens, UniProt P01889)", "++ (20% = ++)"],
  ["121 (YSQLSISL; listed as Homo sapiens) [compound 121]", "HLA-B*08:01 (Homo sapiens, UniProt P01889)", "++ (20% = ++)"],
  ["36 (IVKIKVQEL; listed as Homo sapiens) [compound 36]", "HLA-B*08:01 (Homo sapiens, UniProt P01889)", "++ (20% = ++)"],
  ["142 (YNLIYSMCL; listed as Homo sapiens) [compound 142]", "HLA-B*08:01 (Homo sapiens, UniProt P01889)", "+++ (50% = +++)"],
  ["22 (EVRLKPIL; listed as Homo sapiens) [compound 22]", "HLA-B*08:01 (Homo sapiens, UniProt P01889)", "++ (20% = ++)"],
  ["47 (HSRVKLAQL; listed as Homo sapiens) [compound 47]", "HLA-B*08:01 (Homo sapiens, UniProt P01889)", "++ (20% = ++)"],
  ["60 (MLHIKKAEV; listed as Homo sapiens) [compound 60]", "HLA-B*08:01 (Homo sapiens, UniProt P01889)", "+++ (50% = +++)"],
  ["180 (LAVPIFVAL; listed as Homo sapiens) [compound 180]", "HLA-B*08:01 (Homo sapiens, UniProt P01889)", "++ (20% = ++)"],
  ["109 (IPASHPVLTL; listed as Homo sapiens) [compound 109]", "HLA-B*08:01 (Homo sapiens, UniProt P01889)", "++ (20% = ++)"],
  ["20 (ILKRFLAC; listed as Homo sapiens) [compound 20]", "HLA-B*08:01 (Homo sapiens, UniProt P01889)", "+++ (50% = +++)"],
  ["203 (DVYTQVSAF; listed as Homo sapiens) [compound 203]", "HLA-B*08:01 (Homo sapiens, UniProt P01889)", "++ (20% = ++)"],
  ["38 (EVYQKIIL; listed as Homo sapiens) [compound 38]", "HLA-B*08:01 (Homo sapiens, UniProt P01889)", "+++ (50% = +++)"],
  ["23 (DIKKTNESL; listed as Homo sapiens) [compound 23]", "HLA-B*08:01 (Homo sapiens, UniProt P01889)", "++ (20% = ++)"],
  ["90 (TIGLGLHSL; listed as Homo sapiens) [compound 90]", "HLA-B*08:01 (Homo sapiens, UniProt P01889)", "++ (20% = ++)"],
  ["167 (DMKITVSL; listed as Homo sapiens) [compound 167]", "HLA-B*08:01 (Homo sapiens, UniProt P01889)", "+++ (50% = +++)"]
]}
